B1: Osa-1-4 twister ribozyme (parent)
chain: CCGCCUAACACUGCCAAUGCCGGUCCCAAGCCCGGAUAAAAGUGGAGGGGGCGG

Variants of: B1
assay_method_text: self-cleavage, relative activity (ratio to wild type); higher = more cleavage; co-transcriptional
Each record gets a class by self-cleavage: small value = under 0.07, mid value = from 0.07 up to 0.09, large value = 0.09 and over

Would you mind sorting CCGCCUAGCACUGCCAAUGCCGGUCCGAAGCCCGGAUAAAAGUGGAGGGGGCGG into the appropriate category?
large value

Kindly identify the class of CCGCCUAACACUGCCAAAGCCGGUCCCAAGCCCUGAUAAAAGUGGAGGGGGCGG .
large value

Class for CCGCCUAACACUGCCAAUGCCGGCCCCAAGCGCGGAUAAAAGUGGAGGGGGCGG ?
small value

Tag the class for CCGCCUAACACUGCCAAUGCCGGUCCCAAGCCCGGAUAAAAGUAGAGGGGGCGC
large value

Quick check: band for CCGCCUCACACUGCCAAUGCCGCUCCCAAGCCCGGAUAAAAGUGGAGGGGGCGG
small value

For CCGCCUAACACUGCCAAUGCCGGUCCCAAGCCCGGAUAAAAGUGGAGACGGCGG , which self-cleavage bin applies?
small value

Category lookup for the variant CCGCCUAACACUGCCAAUGCCGGUCCCAAGCUCGGAUAAAAGUAGAGGGGGCGG
mid value

Please report the category associated with CCGCCUAAUACUGGCAAUGCCGGUCCCAAGCCCGGAUAAAAGUGGAGGGGGCGG , nothing else.
mid value

Which class holds CCGCCUAACACUGCCAAUGCCGGUCCCAAGCCCGGAUAAAAGUGAAGGGGACGG ?
large value

Values from the RNAGym collection of RNA variant scans (doi:10.1002/anie.201605470)
